# Tested on: Plasmodium berghei
# assay-procedure: Luciferase/luciferin-expressing antifolate-resistant parasites were used to infect a culture of HepG2 cells that were pre-incubated with compounds. Infected hepatocytes emit light due to the luciferase reaction. Assay results are presented as the percent inhibition of light emission compared to control. […]
# Assay type: functional
# run-conditions: sporozoite, PBLUC_HILL_SLOPE 14.1, PBLUC_R_SQUARED 0.641, read-out: LUCIFERASE INFECTION ASSAY - IC50
pIC50: −log10 of the molar value.

# smiles-notation, pIC50
rows = [
    ("COc1cccc(C(=O)c2c(-c3ccco3)c3c4n(c(-c5ccc(Cl)cc5)cn24)CCCC3)c1", 5.04),
]

* * *

# System: Plasmodium berghei
# assay-procedure: Luciferase/luciferin-expressing antifolate-resistant parasites were used to infect a culture of HepG2 cells that were pre-incubated with compounds. Infected hepatocytes emit light due to the luciferase reaction. Assay results are presented as the percent inhibition of light emission compared to control. […]
# Type: functional
# run-conditions: sporozoite, PBLUC_HILL_SLOPE 1.82, PBLUC_R_SQUARED 0.307, read-out: LUCIFERASE INFECTION ASSAY - IC50

# smiles-notation, system-name, display-unit, IC50
data = [
    ("O=C1C(=O)N(CCN2CCOCC2)c2ccc(Cl)cc21", "Plasmodium berghei", "µM", 2.83),
]

* * *

# System: Plasmodium berghei
# assay-procedure: Luciferase/luciferin-expressing antifolate-resistant parasites were used to infect a culture of HepG2 cells that were pre-incubated with compounds. Infected hepatocytes emit light due to the luciferase reaction. Assay results are presented as the percent inhibition of light emission compared to control. […]
# Type: functional
# run-conditions: sporozoite, PBLUC_HILL_SLOPE 1.3, PBLUC_R_SQUARED 0.149, read-out: LUCIFERASE INFECTION ASSAY - IC50
pIC50: −log10 of the molar value.
property: pIC50

# smiles-notation, result
data = [
    ("CCc1cccc2c(C(=O)CN3CCC(C(=O)N4CCCCCC4)CC3)c[nH]c12", "< 5.00"),
]

* * *

# Test system: Plasmodium berghei
# assay-procedure: Luciferase/luciferin-expressing antifolate-resistant parasites were used to infect a culture of HepG2 cells that were pre-incubated with compounds. Infected hepatocytes emit light due to the luciferase reaction. Assay results are presented as the percent inhibition of light emission compared to control. […]
# Assay type: functional
# run-conditions: sporozoite, HEPG2TOX_HILL_SLOPE 5.61, HEPG2TOX_R_SQUARED 0.886, PBLUC_HILL_SLOPE 7.64, PBLUC_R_SQUARED 0.579, read-out: LUCIFERASE INFECTION ASSAY - IC50
pIC50: −log10 of the molar value.
property: pIC50

# smiles-notation, readout-number
records = [
    ("COc1ccc(OC)c(CCNc2nc3cnc(-c4cccc(Cl)c4)cc3n2C)c1", 5.98),
]

* * *

# Tested on: Plasmodium berghei
# assay-procedure: Luciferase/luciferin-expressing antifolate-resistant parasites were used to infect a culture of HepG2 cells that were pre-incubated with compounds. Infected hepatocytes emit light due to the luciferase reaction. Assay results are presented as the percent inhibition of light emission compared to control. […]
# Format: functional
# run-conditions: sporozoite, PBLUC_HILL_SLOPE 3.81, PBLUC_R_SQUARED 0.48, read-out: LUCIFERASE INFECTION ASSAY - IC50
property: IC50 (µM)

# smiles-notation, readout-number
records = [
    ("c1ccc(OCCCN2CCC(c3nc4ccccc4s3)CC2)cc1", 7.8),
]

* * *

# Tested on: Plasmodium berghei
# assay-procedure: Luciferase/luciferin-expressing antifolate-resistant parasites were used to infect a culture of HepG2 cells that were pre-incubated with compounds. Infected hepatocytes emit light due to the luciferase reaction. Assay results are presented as the percent inhibition of light emission compared to control. […]
# Type: functional
# run-conditions: sporozoite, PBLUC_HILL_SLOPE 12.1, PBLUC_R_SQUARED 0.329, read-out: LUCIFERASE INFECTION ASSAY - IC50
pIC50: −log10 of the molar value.
property: pIC50

# smiles-notation, readout-number
records = [
    ("CN(C)CCNC(=O)c1ccc(-c2cc(-c3cc(F)c(F)c(F)c3)cnc2N)cc1", 5.13),
]

* * *

# System: Plasmodium berghei
# assay-procedure: Luciferase/luciferin-expressing antifolate-resistant parasites were used to infect a culture of HepG2 cells that were pre-incubated with compounds. Infected hepatocytes emit light due to the luciferase reaction. Assay results are presented as the percent inhibition of light emission compared to control. […]
# Type: functional
# run-conditions: sporozoite, HEPG2TOX_HILL_SLOPE 2.15, HEPG2TOX_R_SQUARED 0.762, PBLUC_HILL_SLOPE 2.2, PBLUC_R_SQUARED 0.11, read-out: LUCIFERASE INFECTION ASSAY - IC50
property: IC50 (µM)

# smiles-notation, system-name, readout-number
rows = [
    ("CCOc1ccc(OCC)c(S(=O)(=O)Oc2cccc3ccc(C)nc23)c1", "Plasmodium berghei", 7.25),
]

* * *

# System: Plasmodium berghei
# assay-procedure: Luciferase/luciferin-expressing antifolate-resistant parasites were used to infect a culture of HepG2 cells that were pre-incubated with compounds. Infected hepatocytes emit light due to the luciferase reaction. Assay results are presented as the percent inhibition of light emission compared to control. […]
# Type: functional
# run-conditions: sporozoite, FFLUC_HILL_SLOPE 35.2, FFLUC_R_SQUARED 0.269, read-out: LUCIFERASE INFECTION ASSAY - IC50
property: IC50

# smiles-notation, system-name, result
data = [
    ("CCOC(=O)c1c(C2CC2)csc1NC(=O)COC(=O)c1cc(C)n(-c2cc(Cl)ccc2OC)c1C", "Plasmodium berghei", "> 10 µM"),
]

* * *

# Tested on: Plasmodium berghei
# assay-procedure: Luciferase/luciferin-expressing antifolate-resistant parasites were used to infect a culture of HepG2 cells that were pre-incubated with compounds. Infected hepatocytes emit light due to the luciferase reaction. Assay results are presented as the percent inhibition of light emission compared to control. […]
# Format: functional
# run-conditions: sporozoite, HEPG2TOX_HILL_SLOPE 3.53, HEPG2TOX_R_SQUARED 0.823, PBLUC_HILL_SLOPE 2.94, PBLUC_R_SQUARED 0.35, read-out: LUCIFERASE INFECTION ASSAY - IC50
property: IC50 (µM)

# compound, system-name, property, readout-number
data = [
    ("OC(COc1ccc(OC(F)(F)F)cc1)CN1CCN(c2nc3ccc(Cl)cc3s2)CC1 (stereo unspecified)", "Plasmodium berghei", "IC50", 4.19),
]

* * *

# Test system: Plasmodium berghei
# assay-procedure: Luciferase/luciferin-expressing antifolate-resistant parasites were used to infect a culture of HepG2 cells that were pre-incubated with compounds. Infected hepatocytes emit light due to the luciferase reaction. Assay results are presented as the percent inhibition of light emission compared to control. […]
# Assay type: functional
# run-conditions: sporozoite, HEPG2TOX_HILL_SLOPE 2.2, HEPG2TOX_R_SQUARED 0.729, PBLUC_HILL_SLOPE 11.3, 11.3, PBLUC_R_SQUARED 0.872, 0.879, read-out: LUCIFERASE INFECTION ASSAY - IC50
pIC50: −log10 of the molar value.
property: pIC50

# compound, system-name, readout-number
records = [
    ("N#CC(C(=O)c1ccc(Br)s1)c1nc2ccccc2s1 (stereo unspecified)", "Plasmodium berghei", 5.50),
]

* * *

# Tested on: Plasmodium berghei
# assay-procedure: Luciferase/luciferin-expressing antifolate-resistant parasites were used to infect a culture of HepG2 cells that were pre-incubated with compounds. Infected hepatocytes emit light due to the luciferase reaction. Assay results are presented as the percent inhibition of light emission compared to control. […]
# Format: functional
# run-conditions: sporozoite, HEPG2TOX_HILL_SLOPE 0.313, HEPG2TOX_R_SQUARED 0.61, PBLUC_HILL_SLOPE 2.74, PBLUC_R_SQUARED 0.421, read-out: LUCIFERASE INFECTION ASSAY - IC50
property: IC50 (µM)

# smiles-notation, property, readout-number
measured = [
    ("Cc1sc2ncnc(Oc3ccc4ccccc4c3)c2c1-c1ccccc1", "IC50", 6.76),
]

* * *

# System: Plasmodium berghei
# assay-procedure: Luciferase/luciferin-expressing antifolate-resistant parasites were used to infect a culture of HepG2 cells that were pre-incubated with compounds. Infected hepatocytes emit light due to the luciferase reaction. Assay results are presented as the percent inhibition of light emission compared to control. […]
# Type: functional
# run-conditions: sporozoite, PBLUC_HILL_SLOPE 3.61, PBLUC_R_SQUARED 0.716, read-out: LUCIFERASE INFECTION ASSAY - IC50
property: IC50 (nM)

# smiles-notation, readout-number
rows = [
    ("COc1ccccc1N(C)S(=O)(=O)c1ccc(Cl)c(C(=O)Nc2cccc(C)n2)c1", 1540),
]
